Target: human recombinant Btk (Homo sapiens (Human))
Experiment: Human Recombinant Btk enzyme assay
Assay type: biochemical
Details: read-out: Btk IC50 value
pIC50: −log10 of the molar value.
Would you mind labelling by pIC50? At or over 9 is fulfilled, under is not fulfilled.

| compound | systemTested | labelClass |
| --- | --- | --- |
| Cc1c(-c2c(Cl)cc(C(N)=O)c3[nH]c4cc(C(C)(C)O)ccc4c23)cccc1-n1c(=O)cc2sccn2c1=O (single isomer, unassigned) [Example 39] | human recombinant Btk (Homo sapiens (Human)) | fulfilled |
| Cc1c(-c2c(F)cc(C(N)=O)c3[nH]c4c(c23)CC[C@H](C(C)(C)O)C4)cccc1-n1c(=O)[nH]c2c(Cl)cccc2c1=O (single isomer, unassigned) [Example 63] | human recombinant Btk (Homo sapiens (Human)) | fulfilled |
| [2H]C([2H])([2H])n1c(=O)n(-c2cccc(-c3c(F)cc(C(N)=O)c4[nH]c5c(c34)CC[C@H](C(C)(C)O)C5)c2C)c(=O)c2cccc(F)c21 (single isomer, unassigned) [Example 62] | human recombinant Btk (Homo sapiens (Human)) | fulfilled |
| COc1ccc2c(=O)n(-c3cccc(-c4c(Cl)cc(C(N)=O)c5[nH]c6cc(C(C)(C)O)ccc6c45)c3C)c(=O)n(C)c2c1 (single isomer, unassigned) [Example 5] | human recombinant Btk (Homo sapiens (Human)) | not fulfilled |
| Cc1c(-c2c(Cl)cc(C(N)=O)c3[nH]c4cc(C(C)(C)O)ccc4c23)cccc1-n1c(=O)cc2c(F)cccn2c1=O (single isomer, unassigned) [Example 35] | human recombinant Btk (Homo sapiens (Human)) | fulfilled |
| Cc1nc(C(N)=O)c2[nH]c3cc(C(C)(C)O)ccc3c2c1-c1cccc(-n2cnc3ccccc3c2=O)c1C [Comparative Example 76, reference compound] | human recombinant Btk (Homo sapiens (Human)) | not fulfilled |
| Cc1c(-c2c(F)cc(C(N)=O)c3[nH]c4cc(C(C)(C)O)ccc4c23)cccc1-n1c(=O)cc2c(F)cccn2c1=O (single isomer, unassigned) [Example 40] | human recombinant Btk (Homo sapiens (Human)) | fulfilled |
| Cc1c(-c2c(Cl)cc(C(N)=O)c3[nH]c4cc(C(C)(C)O)ccc4c23)cccc1-n1c(=O)cc2sccn2c1=O (single isomer, unassigned) [Example 38] | human recombinant Btk (Homo sapiens (Human)) | fulfilled |
| Cc1c(-c2c(F)cc(C(N)=O)c3[nH]c4c(c23)CC[C@@H](C(C)(C)O)C4)cccc1-n1c(=O)c2cccc(F)c2n(C)c1=O (atropisomer, axis not shown) [Example 27] | human recombinant Btk (Homo sapiens (Human)) | not fulfilled |
| Cc1c(-c2c(F)cc(C(N)=O)c3[nH]c4cc(C(C)(C)O)ccc4c23)cccc1-n1c(=O)cc2c(Cl)cccn2c1=O (single isomer, unassigned) [Example 30] | human recombinant Btk (Homo sapiens (Human)) | fulfilled |

====

Molecular target: Jak2 tyrosine kinase (Homo sapiens (Human), UniProt O60674)
Sequence (O60674 whole entry): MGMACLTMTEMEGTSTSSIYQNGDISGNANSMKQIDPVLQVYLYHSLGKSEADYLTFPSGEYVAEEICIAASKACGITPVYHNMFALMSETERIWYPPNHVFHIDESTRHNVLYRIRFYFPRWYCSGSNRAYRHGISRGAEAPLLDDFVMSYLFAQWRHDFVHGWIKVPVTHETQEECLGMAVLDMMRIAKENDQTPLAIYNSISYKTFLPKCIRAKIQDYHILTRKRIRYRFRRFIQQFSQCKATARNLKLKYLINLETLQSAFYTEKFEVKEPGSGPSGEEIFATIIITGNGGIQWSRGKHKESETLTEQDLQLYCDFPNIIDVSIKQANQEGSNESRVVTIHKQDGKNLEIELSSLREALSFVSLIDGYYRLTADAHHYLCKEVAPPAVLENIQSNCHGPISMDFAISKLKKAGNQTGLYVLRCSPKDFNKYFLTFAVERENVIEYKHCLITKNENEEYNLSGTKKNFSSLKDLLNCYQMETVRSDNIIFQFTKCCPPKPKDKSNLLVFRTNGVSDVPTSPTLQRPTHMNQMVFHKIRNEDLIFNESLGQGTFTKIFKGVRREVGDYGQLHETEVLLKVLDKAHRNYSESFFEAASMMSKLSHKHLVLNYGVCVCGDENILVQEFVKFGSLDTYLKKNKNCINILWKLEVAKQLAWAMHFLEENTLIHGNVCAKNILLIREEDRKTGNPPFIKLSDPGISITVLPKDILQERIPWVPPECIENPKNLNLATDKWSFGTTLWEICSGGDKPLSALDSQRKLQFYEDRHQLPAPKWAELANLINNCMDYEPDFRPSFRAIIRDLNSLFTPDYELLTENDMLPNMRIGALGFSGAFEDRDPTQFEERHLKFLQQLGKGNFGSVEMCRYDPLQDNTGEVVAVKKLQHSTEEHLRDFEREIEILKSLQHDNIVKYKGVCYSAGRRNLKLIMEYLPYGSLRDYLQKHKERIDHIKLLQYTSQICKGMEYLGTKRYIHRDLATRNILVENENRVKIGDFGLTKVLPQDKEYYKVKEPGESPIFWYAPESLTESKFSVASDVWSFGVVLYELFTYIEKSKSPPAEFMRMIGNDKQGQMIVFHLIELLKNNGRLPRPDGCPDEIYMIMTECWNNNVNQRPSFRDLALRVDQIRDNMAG
Experiment: Jak2 tyrosine kinase assay
Type: biochemical
Details: selectivity of Btk over Jak2

| compound | Ratio of Jak2/Btk IC50 values |
| --- | --- |
| Cc1c(-c2c(F)cc(C(N)=O)c3[nH]c4cc(C(C)(C)O)ccc4c23)cccc1-n1c(=O)cc2c(F)cccn2c1=O (single isomer, unassigned) [Example 41] | 4000 |
| Cc1c(-c2c(F)cc(C(N)=O)c3[nH]c4cc(C(C)(C)O)ccc4c23)cccc1-n1c(=O)cc2c(F)cccn2c1=O (single isomer, unassigned) [Example 40] | 1800 |
| Cc1c(-c2c(F)cc(C(N)=O)c3[nH]c4c(c23)CC[C@H](C(C)(C)O)C4)cccc1-n1c(=O)cc2c(F)cccn2c1=O (single isomer, unassigned) [Example 69] | 11000 |
| Cc1c(-c2c(F)cc(C(N)=O)c3[nH]c4c(c23)CC[C@H](C(C)(C)O)C4)cccc1-n1c(=O)c2cccc(F)c2n(C)c1=O (atropisomer, axis not shown) | 59000 |
| Cc1c(-c2c(Cl)cc(C(N)=O)c3[nH]c4cc(C(C)(C)O)ccc4c23)cccc1-n1c(=O)cc2c(F)cccn2c1=O (single isomer, unassigned) [Example 35] | 3200 |

====

Record set of pIC50 for target or system Jak2 tyrosine kinase (Homo sapiens (Human), UniProt O60674).
pIC50: −log10 of the molar value.
endpointName: pIC50

| compound | endpointName | signQualifier | reportedResult |
| --- | --- | --- | --- |
| Cc1c(-c2c(F)cc(C(N)=O)c3[nH]c4c(c23)CC[C@H](C(C)(C)O)C4)cccc1-n1c(=O)cc2c(Cl)cccn2c1=O (single isomer, unassigned) [Example 64] | pIC50 | < | 5.70 |
| Cc1c(-c2c(F)cc(C(N)=O)c3[nH]c4c(c23)CC[C@H](C(C)(C)O)C4)cccc1-n1c(=O)cc2c(F)cccn2c1=O (single isomer, unassigned) | pIC50 | = | 5.02 |
| COc1ccc2c(=O)n(-c3cccc(-c4c(Cl)cc(C(N)=O)c5[nH]c6cc(C(C)(C)O)ccc6c45)c3C)c(=O)n(C)c2c1 (single isomer, unassigned) | pIC50 | < | 5.70 |
| Cc1c(-c2c(Cl)cc(C(N)=O)c3[nH]c4c(c23)CC[C@H](C(C)(C)O)C4)cccc1-n1c(=O)[nH]c2c(F)cc(F)cc2c1=O (single isomer, unassigned) | pIC50 | = | 6.57 |
| Cc1nc(C(N)=O)c2[nH]c3cc(C(C)(C)O)ccc3c2c1-c1cccc(-n2cnc3ccccc3c2=O)c1C [Comparative Example 76, reference compound] | pIC50 | = | 6.70 |

====

Target: Jak2 tyrosine kinase (Homo sapiens (Human), UniProt O60674)
Assay: Jak2 tyrosine kinase assay
Assay type: biochemical
Conditions: selectivity of Btk over Jak2

| compound | signQualifier | Ratio of Jak2/Btk IC50 values |
| --- | --- | --- |
| [2H]C([2H])([2H])n1c(=O)n(-c2cccc(-c3c(F)cc(C(N)=O)c4[nH]c5c(c34)CC[C@H](C(C)(C)O)C5)c2C)c(=O)c2cccc(F)c21 (single isomer, unassigned) [Example 62] | > | 4900 |
| Cc1c(-c2c(Cl)cc(C(N)=O)c3[nH]c4cc(C(C)(C)O)ccc4c23)cccc1-n1c(=O)cc2sccn2c1=O (single isomer, unassigned) [Example 39] | = | 1200 |
| Cc1nc(C(N)=O)c2[nH]c3cc(C(C)(C)O)ccc3c2c1-c1cccc(-n2cnc3ccccc3c2=O)c1C [Comparative Example 76, reference compound] | = | 29 |
| COc1cccn2c(=O)n(-c3cccc(-c4c(Cl)cc(C(N)=O)c5[nH]c6cc(C(C)(C)O)ccc6c45)c3C)c(=O)cc12 [Example 37] | = | 690 |
| COc1ccc2c(=O)n(-c3cccc(-c4c(Cl)cc(C(N)=O)c5[nH]c6cc(C(C)(C)O)ccc6c45)c3C)c(=O)n(C)c2c1 (single isomer, unassigned) [Example 5] | > | 950 |

====

Target: human recombinant Btk (Homo sapiens (Human), UniProt Q06187)
Sequence (Q06187 whole entry): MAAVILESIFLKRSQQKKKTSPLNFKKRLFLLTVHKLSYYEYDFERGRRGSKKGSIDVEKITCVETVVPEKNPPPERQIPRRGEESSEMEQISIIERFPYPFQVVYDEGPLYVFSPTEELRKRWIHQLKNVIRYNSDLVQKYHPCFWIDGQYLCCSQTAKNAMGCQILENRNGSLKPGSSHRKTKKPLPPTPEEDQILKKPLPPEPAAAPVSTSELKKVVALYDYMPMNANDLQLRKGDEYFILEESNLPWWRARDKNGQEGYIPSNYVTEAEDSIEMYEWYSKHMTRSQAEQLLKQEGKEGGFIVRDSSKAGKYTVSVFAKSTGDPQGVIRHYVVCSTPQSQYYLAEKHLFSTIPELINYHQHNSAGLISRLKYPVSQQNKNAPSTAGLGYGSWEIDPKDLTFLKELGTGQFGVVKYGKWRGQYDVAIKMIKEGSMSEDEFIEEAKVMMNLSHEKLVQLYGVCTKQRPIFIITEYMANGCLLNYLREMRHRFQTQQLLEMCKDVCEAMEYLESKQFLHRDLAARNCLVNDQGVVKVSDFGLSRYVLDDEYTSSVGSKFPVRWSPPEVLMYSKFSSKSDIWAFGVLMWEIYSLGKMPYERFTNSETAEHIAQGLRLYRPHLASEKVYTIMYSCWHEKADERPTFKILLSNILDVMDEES
Assay: Human Recombinant Btk enzyme assay
Type: biochemical
Settings: read-out: Btk IC50 value
Threshold 0.9 nM. IC50 below it: satisfied. IC50 at it or above: not satisfied.

| molecule | labelClass |
| --- | --- |
| Cc1c(-c2c(F)cc(C(N)=O)c3[nH]c4cc(CCO)ccc4c23)cccc1-n1c(=O)cc2c(F)cccn2c1=O [Example 70] | satisfied |
| Cc1c(-c2c(Cl)cc(C(N)=O)c3[nH]c4cc(C(C)(C)O)ccc4c23)cccc1-n1c(=O)cc2c(F)cccn2c1=O [Example 34] | satisfied |
| COc1ccc2c(=O)n(-c3cccc(-c4c(Cl)cc(C(N)=O)c5[nH]c6cc(C(C)(C)O)ccc6c45)c3C)c(=O)n(C)c2c1 (single isomer, unassigned) [Example 6] | not satisfied |
| Cc1c(-c2c(F)cc(C(N)=O)c3[nH]c4c(c23)CC[C@H](C(C)(C)O)C4)cccc1-n1c(=O)cc2c(F)cccn2c1=O (single isomer, unassigned) [Example 69] | satisfied |
| Cc1c(-c2c(C#N)cc(C(N)=O)c3[nH]c4cc(C(C)(C)O)ccc4c23)cccc1-n1c(=O)c2cccc(F)c2n(C)c1=O (single isomer, unassigned) [Example 15] | not satisfied |
